# System: L1210 leukemia ip in BDF1 mice, survival T/C
# PROTOCOL: NCI In Vivo Anticancer Drug Screen. Data for tumor model L1210 Leukemia (intraperitoneal) in B6D2F1 (BDF1) mice
# COND: endpoint: mean survival time; dose: 400.0 mg/kg/injection; schedule: Q01DX001 (ip); vehicle: carboxymethylcellulose (CMC)
Toxic doses and inconclusive results are not listed. Rule as the data show it: active = T/C of 150% or more; inactive = T/C below 125%.
Mark one answer only. Choices: class 1 (active), class 0 (inactive)

For this compound, state the assay outcome: `CCCCCCCCOB(OCCCCCCCC)OCCCCCCCC`
class 0

Outcome? C#CC(OC(=O)c1cc([N+](=O)[O-])cc([N+](=O)[O-])c1)C1OC(C)(C)OC1C1COC(C)(C)O1 (centres undefined)
class 0

For O=C(O)C1C(=O)Oc2c(cccc2[N+](=O)[O-])C1O (centres undefined) , which call appears in the assay record?
class 0
